# Tested on: MRC-5 embryonic lung fibroblast cell line
# ASSAY_DETAILS: MTT cytotoxicity assay on normal MRC-5 fibroblasts
# Format: cell-based, human
# MEASUREMENT_CONDITIONS: up to 100 µM
OBSERVATION_TYPE: Cytotoxic effect on normal MRC-5 cells (in words)

Solved entries (count: 4):
CCOC(=O)C(c1cc(Cl)c2cccnc2c1O)N1CCOCC1 (centres unmarked) [Compound 10] | no toxicity
CCOC(=O)C(c1cc(Cl)c2cccnc2c1O)c1c[nH]c2ccccc12 (centres unmarked) [Compound 11] | mild cytotoxic effect
Oc1c(C(c2ccccc2)c2c[nH]c3ccccc23)cc(Cl)c2cccnc12 (centres unmarked) [Compound 14] | mild cytotoxic effect
CCOC(=O)C(c1cc(Cl)c2cccnc2c1O)c1c[nH]c2ncccc12 (centres unmarked) [Compound 12] | mild cytotoxic effect

Moving on to the next compound.
Incoming: Give the reported Cytotoxic effect on normal MRC-5 cells (in words) for Oc1c(Cc2c[nH]c3ccccc23)cc(Cl)c2cccnc12 [Compound 16] (system: MRC-5 embryonic lung fibroblast cell line).
Outgoing: no toxicity

###

# Tested on: Colo320/MDR-LRP colon adenocarcinoma cell line
# ASSAY_DETAILS: MTT cytotoxicity assay on doxorubicin-resistant, ABCB1- and LRP-expressing Colo320 cells
# Type: cell-based, human
# MEASUREMENT_CONDITIONS: ratio of IC50 in non-tumor MRC-5 cells and IC50 in Colo320
Give Selectivity index SI MRC-5/Colo320 for every item shown.
Give bare numbers.

See these solved cases before continuing.
CCOC(=O)C(c1cc(Cl)c2cccnc2c1O)c1c[nH]c2ncccc12 (centres unmarked) | 9.1
Oc1c(C(c2ccccc2)c2c[nH]c3ccccc23)cc(Cl)c2cccnc12 (centres unmarked) | 11

Moving on to another compound below.
Incoming: Item CCOC(=O)C(c1cc(Cl)c2cccnc2c1O)c1c[nH]c2ccccc12 (centres unmarked) has what recorded Selectivity index SI MRC-5/Colo320?
Outgoing: 11.4

###

# Tested on: Colo320/MDR-LRP colon adenocarcinoma cell line
# ASSAY_DETAILS: MTT cytotoxicity assay on doxorubicin-resistant, ABCB1- and LRP-expressing Colo320 cells
# Type: cell-based, human
# MEASUREMENT_CONDITIONS: Homo sapiens, COLO 320; MTT, 24 h, single experiment; read-out: IC50 Colo320, parallel experiment 2
# Description: The doxorubicin-sensitive Colo205 (ATCC-CCL-222) and the doxorubicin-resistant ABCB1- and LRP-expressing Colo320/MDR-LRP (ATCC-CCL-220.1) human colon adenocarcinoma cell lines were obtained from LGC Promochem in Teddington, UK. […] The effects of increasing concentrations of the compounds on cell growth were tested in 96-well flat-bottomed microtiter plates. […] The selectivity indexes (SI) were calculated as the ratio of the IC50 value in the non-tumor cells and the IC50 value in the cancer cell lines. […]
OBSERVATION_TYPE: log10 IC50 (log10 of the value in µM)
Log scale reminder: IC50 in µM, then log10 taken.

Illustrative cases are given below, each with its answer.
COc1cccc2c1C(=O)c1c(O)c3c(c(O)c1C2=O)C[C@@](O)(C(=O)CO)C[C@@H]3O[C@H]1C[C@H](N)[C@H](O)[C@H](C)O1 [DOX, Doxorubicin, reference compound] | 0.49
Oc1c(Cc2c[nH]c3ccccc23)cc(Cl)c2cccnc12 | 0.68
CCOC(=O)C(c1cc(Cl)c2cccnc2c1O)c1c[nH]c2ccccc12 (centres unmarked) | 0.68
Oc1c(C(c2ccccc2)c2c[nH]c3ccccc23)cc(Cl)c2cccnc12 (centres unmarked) | 0.45
Oc1c(Cc2c[nH]c3ncccc23)cc(Cl)c2cccnc12 | 1.34
CCOC(=O)C(c1cc(Cl)c2cccnc2c1O)c1c[nH]c2ncccc12 (centres unmarked) | 0.69
CCOC(=O)C(c1ccc2ccccc2c1O)c1c[nH]c2ccccc12 (centres unmarked) | 1.74

Continue with the compound presented below.
Incoming: State its log10 IC50 on Colo320/MDR-LRP colon adenocarcinoma cell line: CCOC(=O)C(c1cc(Cl)c2cccnc2c1O)N1CCOCC1 (centres unmarked)
Outgoing: 0.26
